// provenance: ChEMBL document CHEMBL3433997

testSystem: Hexose transporter 1 (Plasmodium falciparum)
assayOverview: ST_JUDE_LEISH: Cytotoxicity at 2uM final concentration against transgenic Leishmania Mexicana promastigotes LmPfHT that are glucose transport deficient and complemented with the Plasmodium falciparum hexose transporter. Activity is measured by DNA content using SYBR green in vitro
Format: functional
Everything with inhibition lower than 3% is F; everything else, including exactly 3%, is T.

{"compound": "CC(=O)Nc1cccc(C(=O)Nc2cccc(-c3ccc(-c4nc5cc(F)ccc5[nH]4)cc3)c2)c1", "testSystem": "Hexose transporter 1 (Plasmodium falciparum)", "discreteLabel": "F"}
{"compound": "CCCC(C)Nc1nc(C)cc(N[C@@H](CC(C)C)C(=O)NCc2ccc(C)cc2)n1 (stereo not given in full)", "testSystem": "Hexose transporter 1 (Plasmodium falciparum)", "discreteLabel": "T"}

Prompt: Could you please find out whether Cc1noc(-c2ccccc2)c1NC(=O)N1CCN(CCCCCCNC(=O)/C=C/c2ccc(Cl)c(Cl)c2)CC1 has inhibition that meets 3% or exceeds it?
Completion: F

Prompt: Determine whether this compound has inhibition no lower than 3%: Cc1ccc(OCCCON2C(=N)N=C(N)NC2(C)C)cc1C
Completion: F

Prompt: Please tell me: is the compound COc1ccc(N2CCN(CCCN3CCN(C(=O)c4ccc(/C=C/c5ccc(Cl)c(Cl)c5)cc4)CC3)CC2)c(OC)c1 at or over 3% in terms of inhibition?
Completion: T

---

inhibition: recorded values
testSystem: Hexose transporter 1 (Plasmodium falciparum) (UniProt O97467)
assayOverview: ST_JUDE_LEISH: Cytotoxicity at 2uM final concentration against transgenic Leishmania Mexicana promastigotes LmPfHT that are glucose transport deficient and complemented with the Plasmodium falciparum hexose transporter. Activity is measured by DNA content using SYBR green in vitro
Assay type: functional

Field: example entries. Status: answers known.
{"compound": "CN(C)CCOc1ccc(-c2cc(-c3ccncc3)c(-c3ccc(Cl)c(O)c3)o2)cc1", "inhibition": "1.64%"}
{"compound": "COc1cccc(-c2cc(C(=O)Nc3cc(Oc4ccc(O)cc4)cc([N+](=O)[O-])c3)on2)c1", "inhibition": "8.76%"}
{"compound": "CC[C@H]1CN(Cc2cccc(O)c2)CC[C@H]1CCCc1ccnc2ccc(O)cc12", "inhibition": "4.23%"}
{"compound": "COc1cc2nc(NCCc3ccccc3)nc(NCc3cnn(C)c3C)c2cc1OC", "inhibition": "8.36%"}
{"compound": "Cc1cc(N2CCCC2)nc(Nc2ccc(NC(=O)Cc3ccccc3)cc2)n1", "inhibition": "95.2%"}

Prompt: Give its inhibition value. Item: O=C(/C=C/c1ccc(Cl)c(Cl)c1)NCCCCCN1CCC(NC(=S)Nc2ccc(Cl)cc2Cl)CC1
Completion: 9.09%

Prompt: Item under review: O=S(=O)(Nc1cccc(CCN2CCCCC2CCN2CCCC2)c1)c1cccc2ccccc12 (centres undefined) . Reported inhibition?
Completion: 2.49%

Prompt: // returns reported inhibition for input COc1ccc(-c2nc(NCc3ccccc3)c3cc(OC)c(OC)cc3n2)cc1
Completion: 12.1%

Prompt: Recorded inhibition for COc1ccc2c(c1)CC1CN(CCCCNC(=O)c3ccc(NC(=O)c4cc(Cl)cc(Cl)c4)cc3)CCN1C2 (centres undefined) , please?
Completion: 4.38%

---

Consider the following molecules and their measured inhibition readings.
testSystem: Hexose transporter 1 (Plasmodium falciparum)
assayOverview: ST_JUDE_LEISH: Cytotoxicity at 2uM final concentration against transgenic Leishmania Mexicana promastigotes LmPfHT that are glucose transport deficient and complemented with the Plasmodium falciparum hexose transporter. Activity is measured by DNA content using SYBR green in vitro
Type: functional
Express your answer in %, writing the number without its unit.

Past entries and their recorded results:
{"molecule": "COc1ccccc1C1CCN(C2CCC(NC(=O)/C=C/c3cccc(C(F)(F)F)c3)CC2)CC1 (stereo not drawn)", "experimentalReadout": "inhibition", "unitTag": "%", "readoutValue": 3.68}
{"molecule": "CN(C)Cc1cccc(-c2ccc(NC(=O)c3ccc4c(=O)n(Cc5cnn(C)c5)cnc4c3)cc2)c1", "experimentalReadout": "inhibition", "unitTag": "%", "readoutValue": 2.88}
{"molecule": "NC(=O)c1ccccc1OCC(=O)Nc1cccc(-c2ccc(-c3nc4ccccc4[nH]3)cc2)c1", "experimentalReadout": "inhibition", "unitTag": "%", "readoutValue": 6.11}
{"molecule": "Cc1ccc(F)cc1S(=O)(=O)N1CCCCC(c2ccc(C(F)(F)F)cc2)=N1", "experimentalReadout": "inhibition", "unitTag": "%", "readoutValue": 5.61}
{"molecule": "COc1ccc(NC(=O)c2ccc(Br)c(C)c2)cc1N1CCN(CCCc2c[nH]c3ccccc23)CC1", "experimentalReadout": "inhibition", "unitTag": "%", "readoutValue": -0.68}

Prompt: Entry COc1ccc(Cc2nc3c(n2C(C)=O)SC(c2ccc(Cl)c(Cl)c2)=NN3C(C)=O)cc1 has what inhibition?
Completion: 5.48

Prompt: Consider the molecule CCn1c(-c2nonc2N)nc2c(C#CC(C)(C)O)ncc(OCCNCCc3ccc(OC)cc3)c21 and give its measured inhibition.
Completion: 9.69

Prompt: Any idea what inhibition was measured for CN1CCC(C(=O)N(Cc2ccc(-c3ccc(CNCCc4ccc(S(C)(=O)=O)cc4)cn3)cc2)Cc2ccc3c(c2)OCO3)CC1 ?
Completion: 0.87

Prompt: Looking for the measured inhibition of CCNc1cc(C(=O)N[C@@H](Cc2ccccc2)[C@H](O)CNC2CCCC2)cc(N2CCCC2=O)c1 , can you help?
Completion: 3.77

Prompt: Item under review: CN(Cc1ccc(NC(=O)NC2CCN(C(=O)/C=C/c3ccc(Cl)c(Cl)c3)CC2)cc1)C1CCOCC1 . Reported inhibition?
Completion: -3.08

Prompt: Entry under review: O=C(c1ccccc1NN=C1C(=O)N(c2ccccc2)N=C1c1ccccc1)N1CCOCC1 . Reported inhibition?
Completion: 1.67

Prompt: I would be grateful if you could share the reported inhibition for CCN(CCS(C)(=O)=O)Cc1ccc(-c2ccc3ncnc(Nc4ccc(OCc5cccc(F)c5)c(Cl)c4)c3c2)o1 .
Completion: 0.54

Prompt: What value of measured inhibition is listed for Cc1ccccc1C1CCN(C2CCC(NC(=O)/C=C/c3c[nH]c4ccccc34)CC2)CC1 (stereo not drawn) ?
Completion: 0.84

---

As shown below, each of these molecules has a reported inhibition value.
testSystem: Solute carrier family 2, facilitated glucose transporter member 1 (Homo sapiens)
assayOverview: ST_JUDE_LEISH: Cytotoxicity at 2uM final concentration against transgenic Leishmania Mexicana promastigotes LmGLUT1 that are glucose transport deficient and complemented with the human glucose transporter GLUT1. Activity is measured by DNA content using SYBR green in vitro
Assay type: functional
Give your result in % as a bare value.

# count of solved cases: 4
{"molecule": "Nc1c(Cl)cc(C(O)CNCCCCCCCCCc2ccccn2)cc1Cl (stereo not given)", "experimentalReadout": "inhibition", "readoutValue": 0.94}
{"molecule": "COC(=O)c1cc(C(O)CNC(C)CCc2cccc(F)c2)ccc1O (stereo not given)", "experimentalReadout": "inhibition", "readoutValue": 2.72}
{"molecule": "C=C(C)C1CC=C(CN2CCCC(n3ccc4cc(NC(=O)c5ccco5)ccc43)CC2)CC1 (stereo not given)", "experimentalReadout": "inhibition", "readoutValue": -1.77}
{"molecule": "COc1ccc(C(=O)N2CCC(C(=O)NC(C)c3ccc(-n4ccnc4)cc3)CC2)c2ccccc12 (stereo not given)", "experimentalReadout": "inhibition", "readoutValue": -1.06}

Moving on to the next molecule.
Prompt: Item Cc1cccc2nc(-c3cccc(-c4cccc(CNCc5cccc(N)c5)c4)c3)[nH]c12 with Solute carrier family 2, facilitated glucose transporter member 1 (Homo sapiens) - inhibition?
Completion: 1.24

---

testSystem: Hexose transporter 1 (Plasmodium falciparum)
assayOverview: ST_JUDE_LEISH: Cytotoxicity at 2uM final concentration against transgenic Leishmania Mexicana promastigotes LmPfHT that are glucose transport deficient and complemented with the Plasmodium falciparum hexose transporter. Activity is measured by DNA content using SYBR green in vitro
Format: functional
Listed here: items and their measured inhibition.
Entry rule: numbers only, all in %.

{"compound": "CCNC(C)(C)CN(Cc1ccc(-c2ccc(C(F)(F)F)cc2)cc1)C(=O)Cn1c(SCc2ccc(F)cc2)nc(=O)c2c1CCC2", "inhibition, %": 5.99}
{"compound": "Oc1c(C(Nc2ccccn2)c2ccc(Cl)cc2Cl)ccc2cccnc12 (stereo not drawn)", "inhibition, %": 5.81}
{"compound": "CC(C)(C)OC(=O)n1cc(C2CCN(CCCC34CCCc5cccc(c53)NC4=O)CC2)c2ccncc21 (stereo not drawn)", "inhibition, %": -0.01}
{"compound": "O=C(Nc1ccc(Oc2ccccc2)cc1)N[C@@H](Cc1ccc(O)cc1)C(=O)NC1CCN(Cc2ccc(O)c([N+](=O)[O-])c2)C1 (stereo partly drawn)", "inhibition, %": 1.19}
{"compound": "C=Cc1sc(CNCCCNc2cc(=O)c3ccccc3[nH]2)c(C)c1Br", "inhibition, %": 0.27}
{"compound": "O=C(/C=C/c1cccs1)NCC(NCCCNc1cc(=O)c2ccccc2[nH]1)c1cc(Br)cc(Br)c1 (stereo not drawn)", "inhibition, %": 3.76}
{"compound": "O=C(Nc1cccc(CN2CCN(Cc3ccc(O)cc3)CC2)c1)c1ccc(-c2ccccc2)cc1", "inhibition, %": 2.25}

Prompt: # query: inhibition | item CCCCCCNC(=O)C1Cc2c([nH]c3ccc(Br)cc23)C2(CCN(Cc3ccccc3)CC2)N1 (stereo not drawn) | system: Hexose transporter 1 (Plasmodium falciparum)
Completion: 15.5
